# assay: in vitro dissolution of fresh human cholesterol gallstones in a model gallbladder at high flow rate (Table I)
# experimental_parameters: total dissolution; one stone of 132-175 mg per solvent; high flow rate
# Protocol: Their efficacy and the techniques of the present invention may be seen from the following data. In the tests described in Table I below, fresh human faceted cholesterol gallstones (kept in distilled water) were dissolved in vitro and the times were recorded for the total dissolution, using a model gallbladder at a high flow rate achieved by a metering pump. […]

{"compound": "CC(=O)OC(C)C [isopropyl acetate]", "measurement_units": "min", "Dissolution Time": 14}
{"compound": "CCCOC(C)=O [n-propyl acetate]", "measurement_units": "min", "Dissolution Time": 10}
{"compound": "CCOC(=O)C(C)C [ethyl isobutyrate]", "measurement_units": "min", "Dissolution Time": 15}
{"compound": "COC(C)(C)C", "measurement_units": "min", "Dissolution Time": 8}
{"compound": "CCOC(=O)CC [ethyl propionate]", "measurement_units": "min", "Dissolution Time": 10}

Where do these numbers come from? They come from patent US5212202A.
